For each record, write down the corresponding Neutralizing activity IC50.
biological target: cynomolgus monkey EL (cynomolgus monkey); assay: cell-based or functional assay
Give bare numbers, in nM.

Examples with answers:
binder: 16B3 (antibody, mouse IgG2a, V domains shown, mouse IgG2a from hybridoma; also called 16B3 (mouse mAb)) VH: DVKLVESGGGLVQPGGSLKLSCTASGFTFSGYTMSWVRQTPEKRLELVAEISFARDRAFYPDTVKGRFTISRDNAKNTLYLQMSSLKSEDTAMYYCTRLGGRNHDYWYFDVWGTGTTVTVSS VL: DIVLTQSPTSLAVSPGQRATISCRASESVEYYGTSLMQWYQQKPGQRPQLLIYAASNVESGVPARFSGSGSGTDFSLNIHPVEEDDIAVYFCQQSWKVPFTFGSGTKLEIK
Neutralizing activity IC50 (nM): 1.9

binder: 14A1 (antibody, mouse IgG1, V domains shown, mouse IgG1 from hybridoma) VH: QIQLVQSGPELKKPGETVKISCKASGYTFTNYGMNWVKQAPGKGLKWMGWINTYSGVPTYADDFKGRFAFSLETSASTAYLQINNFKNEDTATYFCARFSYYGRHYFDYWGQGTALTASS VL: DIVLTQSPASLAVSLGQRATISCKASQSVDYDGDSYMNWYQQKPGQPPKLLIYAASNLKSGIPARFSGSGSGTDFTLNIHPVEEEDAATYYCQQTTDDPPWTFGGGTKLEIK
Neutralizing activity IC50 (nM): 3.1

Okay, now this binder:
// field: Neutralizing activity IC50; key: 16E7 (antibody, mouse IgG1, V domains shown, mouse IgG1 from hybridoma) VH: EVKLVESGGGLVQPGGSLKLSCAASGFTFSSYTMSWVRQTPEKRLELVAEISFTRSRAFYPDTVKGRFTISRDNAKNTLYLQMSSLKSEDTAMYYCARLGGNNYDYWYFDVWGTGTTVTVSS VL: DIVLTQSPTSLAVSLGQRATISCRASESVEYYGTSLMQWYQQKPGQRPKLLIYAASNVESGVPARFSGSGSGTDFSLNIHPVEEDDIAMYFCQQSWKVPFTFGSGTKLEIK ; value = 2.5
